Source listed as paper PMC8125528.

# maps each entry to its IC50
test system: LNCaP cells; assay: MTT antiproliferative assay, LNCaP; type: cell-based; conditions: Homo sapiens; prostate LNCaP cells, 72 h, MTT assay, 0.1-100 µM; read-out: Estimated IC50, LNCaP
Answer format reminder: number followed by unit.

Query: Please give the measured IC50 for this molecule: C[C@]12CC=C3c4ccc(O)cc4CCC3C1CCC2=NO (some centres unmarked) [Compound 11]
Result: 3.59 µM

Continuing:
Query: Request the reported IC50 associated with O=c1[nH]cc(F)c(=O)[nH]1 [Compound 5-FU, 5-fluorouracil, reference compound]
Result: 7.79 µM

====

Listed compounds paired with reported pIC50
test system: Caco-2 cells; experiment: cells; conditions: Homo sapiens, Caco-2, 72 h, read-out: Estimated IC50, Caco-2
# reply with the number alone; pIC50 is -log10 of concentration in mol/L

The cases that follow already have their pIC50 on record.
Query: For Caco-2 cells, provide pIC50 of C[C@]12CC[C@@H]3c4ccc(O)cc4CC[C@H]3[C@@H]1CCC2=O [Compound 1, estrone, reference compound] please.
Result: 4.37

Query: Moving on to C[C@]12CC=C3c4ccc(O)cc4CCC3C1CCC2=NO (stereo partly shown) [Compound 11]
Result: 4.61

Query: Now give it for O=c1[nH]cc(F)c(=O)[nH]1 [Compound 5-FU, 5-fluorouracil, reference compound] too.
Result: 5.88

Attention now shifts to the item below.
Query: Requested read-out pIC50, target or system Caco-2 cells, entry C[C@]12CC[C@@H]3c4cc([N+](=O)[O-])c(O)cc4CC[C@H]3[C@@H]1CCC2=NO [Compound 5]
Result: 4.73
